Please respond with reported log10 MIC for every item in the list.
- Tested on: G(−) bacterial strains
- assayRemarks: Dilution antimicrobial susceptibility tests (MIC, NCCLS agar dilution / broth dilution)
- Type: cell-based, Gram-negative organisms
- testParameters: strain #34 Pseudomonas aeruginosa, Gen-R; unit assumed
Give log10 of MIC, with MIC taken in µg/mL.

## Task Can you share its log10 MIC? I mean this compound: C[C@@H](O)C1C(=O)N2C(C(=O)O)=C(CN3CC[C@H](C#N)C3)[C@H](C)C12 (stereo partly shown)
## Result 0.90

## Task Which log10 MIC is reported for this compound? C[C@@H](O)C1C(=O)N2C(C(=O)O)=C(CN3CC[C@H](NS(N)(=O)=O)C3)[C@H](C)C12 (stereo partly shown)
## Result 0.90

## Task Sample C[C@@H](O)C1C(=O)N2C(C(=O)O)=C(CN3CC[C@H](NC(=N)N)C3)[C@H](C)C12 (stereo partly shown) — what was its log10 MIC?
## Result 0.30

## Task What does the record list as log10 MIC for CC(=O)NC(=N)N[C@H]1CCN(CC2=C(C(=O)O)N3C(=O)C([C@@H](C)O)C3[C@H]2C)C1 (stereo partly shown) ?
## Result 0.60

## Task # lookup: log10 MIC of CC(O)C1C(=O)N2C(C(=O)O)=C(CN3CCC(C(=N)N)C3)C(C)C12 (stereo not shown) [Compound 185a]
## Result 0.00

## Task Requested field: log10 MIC. Item: C[C@@H](O)C1C(=O)N2C(C(=O)O)=C(CN3CC[C@H](NCC(N)=O)C3)[C@H](C)C12 (stereo partly shown)
## Result 1.51

## Task Requested field: log10 MIC. Item: C[C@@H](O)C1C(=O)N2C(C(=O)O)=C(CN3CC[C@H](N)C3)[C@H](C)C12 (stereo partly shown)
## Result 0.30

====

Exercise: for every item that follows, state its recorded MIC.
- System: G(−) bacterial strains
- assayRemarks: Dilution antimicrobial susceptibility tests (MIC, NCCLS agar dilution / broth dilution)
- Format: cell-based, Gram-negative organisms
- testParameters: strain #13 Escherichia coli; unit assumed
Kindly provide the numeric value in µg/mL only, without the unit symbol.

## Task What measured MIC goes with C[C@@H](O)C1C(=O)N2C(C(=O)O)=C(CN3CC[C@H](NC(=N)NS(C)(=O)=O)C3)[C@H](C)C12 (some centres unmarked) ?
## Result 1

## Task # lookup: MIC of CN[C@H]1CCN(CC2=C(C(=O)O)N3C(=O)C([C@@H](C)O)C3[C@H]2C)C1 (some centres unmarked)
## Result 0.25

## Task What MIC value was documented for this compound, CNC(=O)[C@H]1CCN(CC2=C(C(=O)O)N3C(=O)C([C@@H](C)O)C3[C@H]2C)C1 (some centres unmarked) ?
## Result 0.5

## Task Need MIC of C[C@@H](O)C1C(=O)N2C(C(=O)O)=C(CN3CC[C@@H](C(N)=O)C3)[C@H](C)C12 (some centres unmarked) , thanks.
## Result 0.25

## Task # input compound: C[C@@H](O)C1C(=O)N2C(C(=O)O)=C(CN3CC[C@H](CNC(=N)N)C3)[C@H](C)C12 (some centres unmarked) ; wanted: its MIC
## Result 1

## Task Return reported MIC; argument: CC(=O)NC(=N)N[C@H]1CCN(CC2=C(C(=O)O)N3C(=O)C([C@@H](C)O)C3[C@H]2C)C1 (some centres unmarked)
## Result 0.5

## Task Dear colleague, I am looking for the recorded MIC of the following compound: C[C@@H](O)C1C(=O)N2C(C(=O)O)=C(CN3CC[C@@H](N)C3)[C@H](C)C12 (some centres unmarked)
## Result 0.5

## Task // returns reported MIC for input C[C@@H](O)C1C(=O)N2C(C(=O)O)=C(CN3CC[C@H](C(=O)NC(=N)N)C3)[C@H](C)C12 (some centres unmarked)
## Result 0.5

## Task Looking for the measured MIC of C[C@@H](O)C1C(=O)N2C(C(=O)O)=C(CN3CC[C@H](C(=O)NS(N)(=O)=O)C3)[C@H](C)C12 (some centres unmarked) , can you help?
## Result 0.25

## Task # get_value(readout='MIC', item= C[C@@H](O)C1C(=O)N2C(C(=O)O)=C(CN3CC[C@H](C(=O)NCC(N)=O)C3)[C@H](C)C12 (some centres unmarked) )
## Result 1

## Task Dear colleague, I am looking for the recorded MIC of the following compound: C[C@@H](O)C1C(=O)N2C(C(=O)O)=C(CN3CC[C@H](C(=O)NS(C)(=O)=O)C3)[C@H](C)C12 (some centres unmarked)
## Result 0.25

## Task Item C[C@@H](O)C1C(=O)N2C(C(=O)O)=C(CN3CC[C@H](NC(=N)N)C3)[C@H](C)C12 (some centres unmarked) has what recorded MIC?
## Result 0.5

## Task Given the entry C[C@@H](O)C1C(=O)N2C(C(=O)O)=C(CN3CC[C@H](C(N)=O)C3)[C@H](C)C12 (some centres unmarked) , report its measured MIC.
## Result 0.25

## Task Which MIC value belongs to C[C@@H](O)C1C(=O)N2C(C(=O)O)=C(CN3CCC(NC(=O)CNC(=N)N)C3)[C@H](C)C12 (some centres unmarked) ?
## Result 1

## Task // returns reported MIC for input C[C@@H](O)C1C(=O)N2C(C(=O)O)=C(CN3CC[C@H](NC(=O)C(F)(F)F)C3)[C@H](C)C12 (some centres unmarked)
## Result 0.5

## Task Name the reported MIC value associated with the compound C[C@@H](O)C1C(=O)N2C(C(=O)[O-])=C(C[N+]3(C)CC[C@H](NC(=N)N)C3)[C@H](C)C12 (some centres unmarked)
## Result 0.25

## Task Query: MIC; subject: C[C@@H](O)C1C(=O)N2C(C(=O)O)=C(CN3CC[C@H](NC=N)C3)[C@H](C)C12 (some centres unmarked)
## Result 0.5
